Hey, just so you know, these numbers are from patent US8916575B2.

As shown below, each of these compounds has a reported TLR8-wt (LEC) value.
Target: human TLR8 (Homo sapiens, UniProt Q9NR97)
Construct: expressed in transfected cells; host or cells: HEK293
Sequence (Q9NR97 27-1041): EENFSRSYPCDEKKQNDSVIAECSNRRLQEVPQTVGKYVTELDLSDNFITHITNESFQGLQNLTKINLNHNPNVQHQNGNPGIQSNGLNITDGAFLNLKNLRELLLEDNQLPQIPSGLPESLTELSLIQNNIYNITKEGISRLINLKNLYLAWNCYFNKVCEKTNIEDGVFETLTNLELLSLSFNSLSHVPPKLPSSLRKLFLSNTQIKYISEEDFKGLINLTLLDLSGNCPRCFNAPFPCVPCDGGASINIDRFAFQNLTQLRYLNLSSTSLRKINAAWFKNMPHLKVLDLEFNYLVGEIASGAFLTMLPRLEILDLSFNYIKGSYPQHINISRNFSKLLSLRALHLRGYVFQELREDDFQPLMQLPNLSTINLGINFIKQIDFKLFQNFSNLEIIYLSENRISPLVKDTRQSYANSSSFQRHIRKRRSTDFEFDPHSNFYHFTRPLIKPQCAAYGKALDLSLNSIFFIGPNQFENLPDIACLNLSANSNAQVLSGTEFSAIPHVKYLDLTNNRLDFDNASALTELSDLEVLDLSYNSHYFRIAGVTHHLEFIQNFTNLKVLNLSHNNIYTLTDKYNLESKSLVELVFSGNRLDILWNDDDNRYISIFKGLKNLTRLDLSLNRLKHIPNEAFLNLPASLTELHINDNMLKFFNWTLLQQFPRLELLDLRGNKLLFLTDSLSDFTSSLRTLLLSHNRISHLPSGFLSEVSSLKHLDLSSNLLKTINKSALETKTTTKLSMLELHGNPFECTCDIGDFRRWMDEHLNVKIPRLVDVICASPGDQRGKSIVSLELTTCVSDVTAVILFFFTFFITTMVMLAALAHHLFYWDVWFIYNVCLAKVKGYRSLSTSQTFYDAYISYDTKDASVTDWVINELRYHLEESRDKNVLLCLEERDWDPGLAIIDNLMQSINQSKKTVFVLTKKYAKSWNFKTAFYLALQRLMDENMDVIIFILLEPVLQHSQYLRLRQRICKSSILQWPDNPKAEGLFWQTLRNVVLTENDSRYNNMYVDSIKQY
Experiment: TLR8 wild type NFκB-luc cellular reporter assay
Type: cell-based
Parameters: unit not given here
Details: HEK293 NFκB-luc reporter, 6 hours incubation; second part of table

// known answers, use as guide
                                   compound  result
0  CCCCNc1nc(N)nc2cccc(Cl)c12 [Compound 41]    0.13
1  CCC[C@@H](CO)Nc1nc(N)nc2cc(F)c(F)cc12 [Compound 72]    0.02
2  CCCCNc1nc(N)nc2ccc(C#N)cc12 [Compound 19]    7.05
3  CCCC[C@@H](CCO)Nc1nc(N)nc2ccc(C)cc12 [Compound 74]    0.25
4  CCCC[C@@H](CCO)Nc1nc(N)nc2cccc(F)c12 [Compound 84]    0.10

Please turn your attention to the following entry.
# lookup: CCCCNc1nc(N)nc2ccc(CCC(C)O)cc12 (stereo not drawn) [Compound 16] on human TLR8 (Homo sapiens, UniProt Q9NR97), TLR8-wt (LEC) = 0.73
